- MEASURED_TARGET: β-galactosidase
- Sequence (P00722 2-1024): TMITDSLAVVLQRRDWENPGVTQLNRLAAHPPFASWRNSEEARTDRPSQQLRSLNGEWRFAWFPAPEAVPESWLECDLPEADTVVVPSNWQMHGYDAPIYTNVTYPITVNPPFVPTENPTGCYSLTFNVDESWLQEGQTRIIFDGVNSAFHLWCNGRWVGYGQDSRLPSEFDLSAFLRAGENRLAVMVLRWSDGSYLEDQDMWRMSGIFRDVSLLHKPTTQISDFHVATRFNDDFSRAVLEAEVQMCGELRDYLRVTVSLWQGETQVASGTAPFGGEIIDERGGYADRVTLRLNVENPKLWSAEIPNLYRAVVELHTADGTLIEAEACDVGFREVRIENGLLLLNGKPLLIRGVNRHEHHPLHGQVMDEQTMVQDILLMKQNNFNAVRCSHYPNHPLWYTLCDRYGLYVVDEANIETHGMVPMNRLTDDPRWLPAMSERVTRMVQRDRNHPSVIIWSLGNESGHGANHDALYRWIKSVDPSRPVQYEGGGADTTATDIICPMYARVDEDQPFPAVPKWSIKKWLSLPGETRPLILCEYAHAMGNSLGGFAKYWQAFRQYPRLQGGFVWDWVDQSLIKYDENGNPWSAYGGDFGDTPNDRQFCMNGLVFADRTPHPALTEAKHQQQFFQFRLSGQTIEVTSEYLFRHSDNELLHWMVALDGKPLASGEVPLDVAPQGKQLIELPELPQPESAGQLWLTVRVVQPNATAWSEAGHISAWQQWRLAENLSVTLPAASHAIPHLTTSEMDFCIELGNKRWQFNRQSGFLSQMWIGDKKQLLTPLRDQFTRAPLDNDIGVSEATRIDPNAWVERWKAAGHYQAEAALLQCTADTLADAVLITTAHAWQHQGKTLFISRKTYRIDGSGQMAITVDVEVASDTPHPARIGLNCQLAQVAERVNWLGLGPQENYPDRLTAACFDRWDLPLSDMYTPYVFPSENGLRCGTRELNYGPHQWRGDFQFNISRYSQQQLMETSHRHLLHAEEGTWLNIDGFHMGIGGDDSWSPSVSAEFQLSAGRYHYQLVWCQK
- ASSAY_EXPLANATION: phage TRF on β-galactosidase
RECORDED_ENDPOINT: TRF signal
// return a plain number; no unit text

Examples with answers:
>>> assay_result("KB_A12_B-gal_H07 (scFv, V domains shown) VH: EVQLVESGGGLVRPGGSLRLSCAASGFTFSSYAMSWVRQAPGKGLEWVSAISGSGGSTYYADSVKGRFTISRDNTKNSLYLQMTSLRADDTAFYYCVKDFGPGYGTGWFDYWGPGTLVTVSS VL: AVNWYQQLPGKAPKLLIYAAGRCTQTALIRRRCKQDSDCLAGCVCGPNGFCGANSGVSDRFSAAKSGTSASLAINGLRSEDEADYYCAAWDDSLNGYVFGTGTKLTVLG")
62000
>>> assay_result("KB_A12_B-gal_F03 (scFv, V domains shown) VH: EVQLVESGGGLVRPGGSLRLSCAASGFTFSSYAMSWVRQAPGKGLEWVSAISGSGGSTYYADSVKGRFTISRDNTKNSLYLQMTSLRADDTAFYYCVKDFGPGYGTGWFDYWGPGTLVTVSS VL: AVNWYQQLPGKAPKLLIYAAGRCLATTSIRRHCKQDSDCLAGCVCGPNGFCGANSGVSDRFSAAKSGTSASLAINGLRSEDEADYYCAAWDDSLNGYVFGTGTKLTVLG")
289000
>>> assay_result("KB_A12_B-gal_F02 (scFv, V domains shown) VH: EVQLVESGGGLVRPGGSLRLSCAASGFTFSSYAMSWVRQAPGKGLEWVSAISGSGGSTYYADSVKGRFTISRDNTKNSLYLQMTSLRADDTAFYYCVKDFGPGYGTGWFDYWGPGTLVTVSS VL: AVNWYQQLPGKAPKLLIYAAGRCRTTSTIRRRCKQDSDCLAGCVCGPNGFCGANSGVSDRFSAAKSGTSASLAINGLRSEDEADYYCAAWDDSLNGYVFGTGTKLTVLG")
476000
>>> assay_result("KB_A12_B-gal_F09 (scFv, V domains shown) VH: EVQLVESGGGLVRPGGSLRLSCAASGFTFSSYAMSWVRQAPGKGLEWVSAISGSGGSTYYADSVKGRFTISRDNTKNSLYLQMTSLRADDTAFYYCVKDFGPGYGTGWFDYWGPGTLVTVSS VL: AVNWYQQLPGKAPKLLIYAAGRCIATSHIRRHCKQDSDCLAGCVCGPNGFCGANSGVSDRFSAAKSGTSASLAINGLRSEDEADYYCAAWDDSLNGYVFGTGTKLTVLG")
258000

Next, consider the following binder.
Q. Entry KB_A12_B-gal_H02 (scFv, V domains shown) VH: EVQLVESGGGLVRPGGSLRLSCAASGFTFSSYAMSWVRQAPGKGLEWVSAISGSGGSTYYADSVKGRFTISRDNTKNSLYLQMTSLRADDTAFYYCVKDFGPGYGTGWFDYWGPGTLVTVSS VL: AVNWYQQLPGKAPKLLIYAAGRCEQTSVIRRHCKQDSDCLAGCVCGPNGFCGANSGVSDRFSAAKSGTSASLAINGLRSEDEADYYCAAWDDSLNGYVFGTGTKLTVLG : reported TRF signal = ?
A. 501000
